melting point overview

Cc1cc(S(N)(=O)=O)ccc1NC(=O)Cc1ccc(C)c(Oc2cc(C#N)cc(C#N)c2)c1 [Compound I-43]	228.6 to 230.9 °C
CCc1ccc(CC(=O)Nc2ccccc2Cl)cc1Oc1c(Cl)cccc1Cl [Compound I-23]	107 to 110.5 °C
Cc1cc(S(N)(=O)=O)ccc1NC(=O)Cc1ccc(Cl)c(Oc2c(C)cc(C#N)cc2C)c1 [Compound I-56]	232.1 to 234.6 °C
CCc1ccc(CC(=O)Nc2ccc(S(N)(=O)=O)cc2Cl)cc1Oc1cc(C#N)cc(C#N)c1Cl [Compound I-54]	180.3 to 183.1 °C
Cc1cc(CC(=O)Nc2ccc(S(N)(=O)=O)cc2Cl)cc(Oc2cc(Cl)cc(C#N)c2)c1 [Compound I-143]	194.1 to 195.9 °C
Cc1cc(OCCCS(N)(=O)=O)ccc1NC(=O)Cc1ccc(Cl)c(Oc2cc(Cl)ccc2Br)c1 [Compound I-3]	190.1 to 192.2 °C

As a next step, examine the compound that follows.
Request: If you can, please state the reported melting point value of Cc1cc(S(=O)(=O)CCC#N)ccc1NC(=O)Cc1ccc(C)c(Oc2cc(Cl)cc(C#N)c2)c1 [Compound I-137] .
Result: 186.1 to 188 °C
